Cited source: patent US20240140953A1

- Test system: MV4-11 (MLL-AF4)
- assay.protocol: LTP assay, CellTiterGlo, T4-T14 (Example 103), MV4-11
- Assay type: cell-based, human
- particulars: Homo sapiens, MV4-11, MV4-11 (MLL-AF4), T11; read-out: IC50 T11
pIC50: −log10 of the molar value.
quantity: pIC50

Consider the worked cases shown below.
structure.as.smiles: O=C(Cc1cc(-c2cccnc2)n[nH]1)Nc1ccc(-c2nc3c(N4CCOCC4)ncnc3[nH]2)cc1
pIC50: 6.07
--
structure.as.smiles: Cc1ccc(-c2cc(CC(=O)Nc3ccc(-c4nc5c(N6CCOCC6)nccc5[nH]4)cc3)[nH]n2)cn1
pIC50: 5.51
--
structure.as.smiles: Cc1cn(-c2nccc3[nH]c(-c4ccc(NC(=O)Cc5cc(-c6cccnc6)n[nH]5)cc4)nc23)cn1
pIC50: 5.58

P. O=C(Nc1ccc(-c2nc3c(N4CCOCC4)nccc3[nH]2)cc1)Nc1cc(-c2cccnc2)n[nH]1
Q. Cn1nc(-c2cccnc2)cc1CC(=O)Nc1ccc(-c2cc3c(N4CCOCC4)ncnc3[nH]2)cc1
Task item: Just tell me: smaller pIC50 value, P or Q ? Answer by quoting the chosen item's label.
Reply: Q

====

Listed below: HL-60 % max values for each entry.
- Test system: HL-60
- assay.protocol: Proliferation study, CellTiterGlo, 4 days (Example 102), HL-60
- Assay type: cell-based
- particulars: HL-60, 4 days treatment, maximal inhibition
Dear colleague, please return just the value in %, with no unit written.

Consider the worked cases shown below.
compound: Cc1c(CN2CCC(Nc3ncnc4sc(CC(F)(F)F)cc34)CC2)ccc2c1cc(C#N)n2Cc1cn[nH]c1 [MI-503, reference compound]
endpoint.value: 103

compound: Cn1nc(-c2cccnc2)cc1CC(=O)Nc1ccc(-c2cc3c(N4CCOCC4)ncnc3[nH]2)cc1 [Compound 11]
endpoint.value: 102

Task item: GET /values?readout=HL-60 % max&item= O=C(Nc1ccc(-c2cc3c(N4CCOCC4)ncnc3[nH]2)cc1)Nc1cc(-c2cccnc2)n[nH]1 [Compound 9]
Reply: 69

Task item: Now consider Cc1cn(-c2ncnc3[nH]c(-c4ccc(NC(=O)Cc5cc(-c6cccnc6)n[nH]5)cc4)cc23)cn1 [Compound 13] and answer again.
Reply: 112

Task item: Now consider O=C(Cc1cc(-c2cccnc2)n[nH]1)Nc1ccc(-c2cc3c(N4CCOCC4)ncnc3[nH]2)cc1 [Compound 10] and answer again.
Reply: 65

====

- System: MV-4-11
- assay.protocol: Long term proliferation assay (Table 3A), MV-4-11
- Assay type: cell-based
- particulars: Homo sapiens, MV4-11; MV-4-11, Day 4; read-out: MV-4-11 Day 4 IC50
quantity: IC50 (nM)

A. O=C(Cc1cc(-c2cccnc2)n[nH]1)Nc1ccc(-c2nc3c(N4CCOCC4)ncnc3[nH]2)cc1 [Compound 12]
B. Cc1cn(-c2ncnc3[nH]c(-c4ccc(NC(=O)Cc5cc(-c6cccnc6)n[nH]5)cc4)cc23)cn1 [Compound 13]
Task item: Just tell me: smaller IC50 value, A or B ? Answer by quoting the chosen item's label.
Reply: A
(A: 430 nM, B: 910 nM)

====

- System: MOLM-13 (MLL-AF9)
- assay.protocol: Proliferation study, CellTiterGlo, 4 days (Example 102), MOLM-13
- Format: cell-based, human
- particulars: MOLM-13, 4 days treatment, CellTiterGlo; read-out: MOLM-13 (MLL-AF9) IC50
quantity: IC50 (nM)
Dear colleague, please return just the value in nM, with no unit written.

Task item: GET /values?readout=IC50&item= Cc1c(CN2CCC(Nc3ncnc4sc(CC(F)(F)F)cc34)CC2)ccc2c1cc(C#N)n2Cc1cn[nH]c1 [MI-503, reference compound]
Reply: 230
